target: T1, M7-1; assay: scFv-phage ELISA
T1 construct: also called PD1 mutant M7-1
Would you kindly list OD490 for each of these binders?
Numbers only.

Input: OD490 lookup needed for PD1-32A6 (antibody, V domains shown, scFv-phage in the screening ELISA; later whole IgG) VH: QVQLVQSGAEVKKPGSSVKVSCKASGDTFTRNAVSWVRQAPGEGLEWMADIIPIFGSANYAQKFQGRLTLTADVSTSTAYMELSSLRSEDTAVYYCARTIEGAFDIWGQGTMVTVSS VL: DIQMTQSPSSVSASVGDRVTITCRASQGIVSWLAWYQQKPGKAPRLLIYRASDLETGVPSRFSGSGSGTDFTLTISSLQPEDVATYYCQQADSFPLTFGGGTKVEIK , thanks.
Output: 3.1

More entries:
Input: OD490 lookup needed for PD1-52E8 (antibody, V domains shown, scFv-phage in the screening ELISA; whole IgG in the other assays) VH: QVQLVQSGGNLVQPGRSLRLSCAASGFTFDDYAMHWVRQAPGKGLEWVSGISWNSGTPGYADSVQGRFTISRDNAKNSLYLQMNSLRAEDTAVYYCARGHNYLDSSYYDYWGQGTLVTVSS VL: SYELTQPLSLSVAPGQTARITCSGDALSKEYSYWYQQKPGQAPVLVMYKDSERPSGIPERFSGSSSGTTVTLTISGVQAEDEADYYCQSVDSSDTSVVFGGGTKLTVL , thanks.
Output: 1.1
